- Test system: Anaerococcus hydrogenalis DSM 7454
- assay details: TMA inhibition in bacterial whole cells (LC–MS/MS of d9-TMA from d9-choline)
- Assay type: cell-based
- assay setup: Anaerococcus hydrogenalis, DSM7454, 1.25 h; 1 mM d9-choline in PBS, 75 min, 37°C, anaerobic
- Procedure: For TMA inhibition assays, E. coli and P. mirabilis were grown in NCE medium supplemented with 20 mM choline chloride, A. hydrogenalis was grown in MEGA medium supplemented with 3 mM choline chloride, and C. sporogenes was grown in BHI medium supplemented with 20 mM of choline chloride to induce expression of the cut gene cluster. For MIC assays, all bacteria strains were grown in MEGA medium. […]
Recorded EC50, one value per entry.
assay metric: EC50 (µM)

[[record]]
molecule = "Cc1ccc(-c2cc(C(=O)NCCCN3CCC(C)CC3)c(C)[nH]2)cc1C [Compound 6]"
units = "µM"
numeric_value = 31

[[record]]
molecule = "Cc1ccc(-c2cc(C(=O)NCCCCCN3CCCCCC3)c(C)[nH]2)cc1C [Compound 45]"
units = "µM"
numeric_value = 18

[[record]]
molecule = "Cc1ccc(-c2cc(C(=O)NCCCN3CCCCCC3)c(C)[nH]2)cc1C [C00016]"
units = "µM"
numeric_value = 43

[[record]]
molecule = "Cc1ccc(-c2cc(C(=O)NCCN3CCC(C)CC3)c(C)[nH]2)cc1C [C00003]"
units = "µM"
numeric_value = 176

[[record]]
molecule = "Cc1ccc(-c2cc(C(=O)NCCCCN3CCC(C)CC3)c(C)[nH]2)cc1C [C00004]"
units = "µM"
numeric_value = 27

[[record]]
molecule = "Cc1ccc(-c2cc(C(=O)NCCCCN3CCCCCC3)c(C)[nH]2)cc1C [C00018]"
units = "µM"
numeric_value = 7

[[record]]
molecule = "Cc1ccc(-c2cc(C(=O)NCCCN3CCCCC3)c(C)[nH]2)cc1C [C00015]"
units = "µM"
numeric_value = 244

[[record]]
molecule = "Cc1ccc(-c2cc(C(=O)NCCCN3CCCC3)c(C)[nH]2)cc1C [C00014]"
units = "µM"
numeric_value = 83

[[record]]
molecule = "Cc1ccc(-c2cc(C(=O)NCCCCCN3CCC(C)CC3)c(C)[nH]2)cc1C [C00005]"
units = "µM"
numeric_value = 33

[[record]]
molecule = "Cc1ccc(-c2cc(C(=O)NCCCN3CCCCCCC3)c(C)[nH]2)cc1C [C00017]"
units = "µM"
numeric_value = 28


* * *

In this section, each of the molecules is paired with its reported pEC50.
- System: Proteus mirabilis ATCC 29906
- assay details: TMA inhibition in bacterial whole cells (LC–MS/MS of d9-TMA from d9-choline)
- Format: cell-based
- assay setup: 1 mM d9-choline in PBS, 90 min, 37°C, anaerobic; read-out: EC50 in whole cells, P. mirabilis (TMA inhibition)
- Method: For TMA inhibition assays, E. coli and P. mirabilis were grown in NCE medium supplemented with 20 mM choline chloride, A. hydrogenalis was grown in MEGA medium supplemented with 3 mM choline chloride, and C. sporogenes was grown in BHI medium supplemented with 20 mM of choline chloride to induce expression of the cut gene cluster. For MIC assays, all bacteria strains were grown in MEGA medium. […]
pEC50: −log10 of the molar value.
assay metric: pEC50

[[record]]
mol_smiles = "Cc1cc(C)cc(-c2cc(C(=O)NCCCN3CCC(C)CC3)c(C)[nH]2)c1"
assay_metric = "pEC50"
readout_relation = "="
numeric_value = 4.55

[[record]]
mol_smiles = "Cc1cc(-c2cc(C(=O)NCCCN3CCC(C)CC3)c(C)[nH]2)ccn1"
assay_metric = "pEC50"
readout_relation = "<"
numeric_value = 3.51

[[record]]
mol_smiles = "Cc1ccc(-c2cc(C(=O)NCCCN3CCC(C)CC3)c(C)o2)cc1C"
assay_metric = "pEC50"
readout_relation = "<"
numeric_value = 3.51

[[record]]
mol_smiles = "Cc1ccc(-c2cc(C(=O)NCCCN3CCC(C)CC3)cn2C)cc1C"
assay_metric = "pEC50"
readout_relation = "="
numeric_value = 4.01

[[record]]
mol_smiles = "Cc1ccc(-c2cc(C(=O)OCCCN3CCC(C)CC3)c(C)[nH]2)cc1C"
assay_metric = "pEC50"
readout_relation = "<"
numeric_value = 3.51

